The entries below come with measured RUNX1 binding intensity values attached.
# Study Target: RUNX1 (UniProt Q01196)
# Sequence (Q01196 whole entry): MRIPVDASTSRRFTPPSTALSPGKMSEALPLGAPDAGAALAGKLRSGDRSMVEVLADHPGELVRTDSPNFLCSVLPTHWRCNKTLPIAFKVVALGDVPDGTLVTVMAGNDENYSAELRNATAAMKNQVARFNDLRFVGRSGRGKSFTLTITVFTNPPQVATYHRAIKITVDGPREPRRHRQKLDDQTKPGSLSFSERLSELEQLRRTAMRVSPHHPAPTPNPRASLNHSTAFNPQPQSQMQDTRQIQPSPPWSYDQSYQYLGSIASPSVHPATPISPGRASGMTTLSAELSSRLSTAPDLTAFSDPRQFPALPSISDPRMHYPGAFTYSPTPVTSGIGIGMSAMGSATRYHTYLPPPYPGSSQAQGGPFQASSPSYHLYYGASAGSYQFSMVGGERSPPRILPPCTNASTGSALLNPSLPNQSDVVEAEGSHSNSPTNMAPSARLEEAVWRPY
# Test: RUNX1 binding intensity (PBM fluorescence), RUNX1 alone (arbitrary fluorescence units); higher = stronger binding;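 also: Full-length recombinant human RUNX1 bound to double-stranded 36-bp genomic probes on a high-density microarray, scored as Alexa488 fluorescence per spot via anti-RUNX1 antibody, median of four replicate spots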
# Measurement Context: RUNX1 concentration 2 nM; ETS1 concentration 0 nM
Endpoint Label: RUNX1 binding intensity

>>> print(df.to_string())
                                residues           endpoint_label  readout_number
 0  CCCGCTGTCACTTCCTGCTTCCCTCCCGCACACGTG  RUNX1 binding intensity            1920
 1  ACAGGCTGTCTGCTTCCGTCAGCGGTTATTCCCTTG  RUNX1 binding intensity             882
 2  GGGTGCAGACGGGAAGTTGCGGCTGCCAGCGAAGCT  RUNX1 binding intensity             741
 3  CGGGGCTTCCGGCGCGCTGCCTTGTGGGCACGGTAG  RUNX1 binding intensity             711
 4  CACTTCCTCCTCGGGGGCCTCAGAAAACCACAGGGC  RUNX1 binding intensity            1110
 5  TGGGAACTTCCTGTGGAGGAGTGCATTGTGGGACTT  RUNX1 binding intensity             686
 6  CAGGCTCGCCACAGGGGAAGTGGTTAGGGCGGGTCC  RUNX1 binding intensity             775
 7  AGTTACAGTAAAGGATGTGGTGAAACAGATGTTTAT  RUNX1 binding intensity             781
 8  TCGCTTCCGGTGTCGGTTACAGACTGTGGTTGCCAT  RUNX1 binding intensity             906
 9  TGTGTAAGAGGAAACACCAAAACCACAAATATGAAA  RUNX1 binding intensity            2080
10  ACGGGGAAGAACGGAAGTGGTTTCCATGATGGTCTG  RUNX1 binding intensity             831
11  TTCTGTAGCTTAGGATGTGGGTTTCTTTGTTTCTGA  RUNX1 binding intensity             926

====

# Study Target: RUNX1 (UniProt Q01196)
# Test: RUNX1 binding intensity (PBM fluorescence), RUNX1 alone (arbitrary fluorescence units); higher = stronger binding
# Measurement Context: RUNX1 concentration 2 nM; ETS1 concentration 0 nM
The entries below come with measured RUNX1 binding intensity values attached.
Endpoint Label: RUNX1 binding intensity

>>> df
                                residues  readout_number
 0  CCCTGGGGCCCCACTTCCTTGCCCACAAGAAAGGAC            1020
 1  GGGGCAGGAAGTGGAGGTTTGAAGTGGTTTAGAGTA             799
 2  ACCTCAGGTACCGGAAGACCACAATTCCCAGGAGTC             965
 3  GCACTTCCGGAGCCGGGCGTCTACAGACCGCGGCCA             804
 4  TGAGTTTTGTTTCCGATTCACCACAGAAGATACTTT            2230
 5  GATGACTTCCTCAGTTCAGGGCTATGTGCGGGGGAG             833
 6  GAGAAACAGGAAGAGGGGTGGTGGTTACGGAACACG             807
 7  CGCCCACCACTTCCTGCTGGCGGTCGGCAAGCGTTG            1020
 8  GCATCATCACTTCCTGTTGTGGGCAGTCGTTGCCTG             843
 9  GACAAAACACAGAAAGGAAGTGGTCAACTATTGCAC             835
10  GAGTTCCGCCTCGCCGTTTGTCCCTTGCGGTACCCG             890
11  GCTCCTCCCGGATATAAAGCCCCAAACCACGCCACT            1140
